test system: cerebellar granule cells (CGC); test: Antiapoptotic capacity (rescue) in cerebellar granule cells induced into apoptosis by cytosine arabinoside (CGC assay); format: cell-based, Wistar rat; settings: overall over 10^−6, 10^−9, 10^−12 M
Counter-ions that a name gives are not always drawn.
recorded.metric: Rescue by Amino Acids and Esters in the CGC Assay, Rescue (overall yes/no)

Below are worked cases with known answers.
COC(=O)CCNC(C)C.Cl [2-Propyl (B-Alaninates)]    no
CC(C)N(C)CCC(=O)O [2-Propyl-N-methyl (B-Alanines), 3-(2-Propylmethylamino)propionic acid]    yes
CCCCC[C@H](C)NCCC(=O)O.Cl [S-2-Heptyl (B-Alanines)]    no
CCCCC[C@H](C)NCC(=O)O.Cl [S-2-Heptyl (Glycines)]    yes
CC(C)NCCC(=O)O.Cl [2-Propyl (B-Alanines)]    yes
CCCCCC(C)NCCC(=O)O (stereo in doubt) [R-2-Heptyl (B-Alanines), hydrochloride]    yes

# input # return recorded Rescue by Amino Acids and Esters in the CGC Assay, Rescue (overall yes/no) for entry CCCCC[C@@H](C)N(C)CCC(=O)OC.Cl [R-2-Heptyl-N-methyl (B-Alaninates)]
# output yes

# input # return recorded Rescue by Amino Acids and Esters in the CGC Assay, Rescue (overall yes/no) for entry CCCCCCNCCC(=O)O [1-Hexyl (B-Alanines), 3(1-Hexylamino)propionic acid]
# output yes

# input # return recorded Rescue by Amino Acids and Esters in the CGC Assay, Rescue (overall yes/no) for entry CC(C)NCC(=O)O.Cl [2-Propyl (Glycines)]
# output yes
